Test system: Septoria nodorum
Assay: Test C: preventive spray on wheat seedlings, Septoria glume blotch, visual disease rating
Type: in vivo
Conditions: Parastagonospora nodorum, 264 h, 200 ppm test suspension, Septoria nodorum inoculated the day after spraying
Experimental: General protocol for preparing test suspensions for Tests A-G: the test compounds were first dissolved in acetone in an amount equal to 3% of the final volume and then suspended at the desired concentration (in ppm) in acetone and purified water (50/50 mix by volume) containing 250 ppm of the surfactant Trem® 014 (polyhydric alcohol esters). The resulting test suspensions were then used in Tests A-G. Each test was conducted in triplicate, and the results were averaged. […]
Below: a set of entries, each annotated with reported pest or weed control at 200 ppm.

[
  {
    "Compound": "COCCOc1c(-c2ccc(F)cc2Cl)c(C)nn1C",
    "System": "Septoria nodorum",
    "Unit String": "%",
    "pest or weed control at 200 ppm": 0
  },
  {
    "Compound": "CCC(C)C(SC)c1c(-c2c(F)cccc2Cl)c(C)nn1C (centres unmarked)",
    "System": "Septoria nodorum",
    "Unit String": "%",
    "pest or weed control at 200 ppm": 0
  },
  {
    "Compound": "CCC(C)C(N)c1c(-c2c(F)cccc2Cl)c(C)nn1C (centres unmarked)",
    "System": "Septoria nodorum",
    "Unit String": "%",
    "pest or weed control at 200 ppm": 98
  },
  {
    "Compound": "Cc1nn(C)c(C(O)C(C)C)c1-c1ccc(F)cc1Cl (centres unmarked)",
    "System": "Septoria nodorum",
    "Unit String": "%",
    "pest or weed control at 200 ppm": 0
  },
  {
    "Compound": "CCC(C)COc1c(-c2ccc(F)cc2Br)c(C)nn1C (centres unmarked)",
    "System": "Septoria nodorum",
    "Unit String": "%",
    "pest or weed control at 200 ppm": 0
  }
]

* * *

Tested on: Septoria tritici
Experiment: Test D: preventive spray on wheat seedlings, wheat leaf blotch, visual disease rating
Type: in vivo
Settings: 200 ppm test suspension, Septoria tritici inoculated the day after spraying
Use yes (1) when the recorded Test D rating (disease control) is no lower than 50%; use no (0) when it is lower.

[
  {
    "Molecule": "C=CCC(C)(C)C(O)c1c(-c2c(F)cccc2F)c(C)nn1C (stereo not drawn)",
    "Label Value": "yes (1)"
  },
  {
    "Molecule": "Cc1nn(C)c(NCC(C)C)c1-c1ccc(F)cc1Br",
    "Label Value": "no (0)"
  },
  {
    "Molecule": "CCN(CC)c1c(-c2c(F)cc(F)cc2F)c(C)nn1C",
    "Label Value": "no (0)"
  },
  {
    "Molecule": "COCCNc1c(-c2ccc(F)cc2Br)c(C)nn1C",
    "Label Value": "no (0)"
  },
  {
    "Molecule": "Cc1nn(C)c(NC(C)C)c1-c1c(F)cc(F)cc1F",
    "Label Value": "no (0)"
  },
  {
    "Molecule": "CCCCC(CC)C(O)c1c(-c2c(F)cccc2F)c(C)nn1C (stereo not drawn)",
    "Label Value": "yes (1)"
  },
  {
    "Molecule": "Cc1nn(C)c(OCC(C)C)c1-c1ccc(F)cc1Cl",
    "Label Value": "yes (1)"
  },
  {
    "Molecule": "Cc1nn(C)c(NC(C)C)c1-c1ccc(F)cc1Br",
    "Label Value": "no (0)"
  },
  {
    "Molecule": "Cc1nn(C)c(C(O)C2=CCCCC2)c1-c1c(F)cccc1F (stereo not drawn)",
    "Label Value": "yes (1)"
  },
  {
    "Molecule": "Cc1nn(C)c(OC(C)C)c1-c1ccc(F)cc1Cl",
    "Label Value": "no (0)"
  },
  {
    "Molecule": "Cc1nn(C)c(C(N)C(C)C)c1-c1c(F)cccc1Cl (stereo not drawn)",
    "Label Value": "yes (1)"
  },
  {
    "Molecule": "Cc1nn(C)c(N2CCCCC2C)c1-c1ccc(F)cc1Cl (stereo not drawn)",
    "Label Value": "no (0)"
  },
  {
    "Molecule": "CCN(CC)c1c(-c2ccc(F)cc2Br)c(C)nn1C",
    "Label Value": "no (0)"
  },
  {
    "Molecule": "Cc1nn(C)c(NCC2CC2)c1-c1ccc(F)cc1Br",
    "Label Value": "yes (1)"
  },
  {
    "Molecule": "COCCN(CCOC)c1c(-c2ccc(F)cc2Br)c(C)nn1C",
    "Label Value": "no (0)"
  },
  {
    "Molecule": "CCC(C)C(O)c1c(-c2c(F)cccc2F)c(C)nn1C (stereo not drawn)",
    "Label Value": "yes (1)"
  },
  {
    "Molecule": "CC=C(C)C(O)c1c(-c2c(F)cccc2Cl)c(C)nn1C (stereo not drawn)",
    "Label Value": "yes (1)"
  },
  {
    "Molecule": "CCCCNc1c(-c2c(F)cc(F)cc2F)c(C)nn1C",
    "Label Value": "yes (1)"
  },
  {
    "Molecule": "CCC=C(C)C(O)c1c(-c2c(F)cccc2F)c(C)nn1C (stereo not drawn)",
    "Label Value": "no (0)"
  },
  {
    "Molecule": "Cc1nn(C)c(C(O)CC(C)C)c1-c1c(F)cccc1Cl (stereo not drawn)",
    "Label Value": "yes (1)"
  },
  {
    "Molecule": "Cc1nn(C)c(N2CCCCC2)c1-c1ccc(F)cc1Cl",
    "Label Value": "yes (1)"
  },
  {
    "Molecule": "CCCC(O)c1c(-c2c(F)cccc2Cl)c(C)nn1C (stereo not drawn)",
    "Label Value": "yes (1)"
  },
  {
    "Molecule": "CCCCN(CCCC)c1c(-c2ccc(F)cc2Br)c(C)nn1C",
    "Label Value": "no (0)"
  },
  {
    "Molecule": "CCCC(O)c1c(-c2c(F)cccc2F)c(C)nn1C (stereo not drawn)",
    "Label Value": "yes (1)"
  },
  {
    "Molecule": "CCCNc1c(-c2ccc(Cl)cc2Cl)c(C)nn1C",
    "Label Value": "yes (1)"
  },
  {
    "Molecule": "Cc1nn(C)c(NC(C)C)c1-c1ccc(F)cc1F",
    "Label Value": "no (0)"
  },
  {
    "Molecule": "COCCNc1c(-c2c(F)cc(F)cc2F)c(C)nn1C",
    "Label Value": "yes (1)"
  },
  {
    "Molecule": "Cc1nn(C)c(C(O)CC(C)C)c1-c1c(F)cccc1F (stereo not drawn)",
    "Label Value": "yes (1)"
  },
  {
    "Molecule": "Cc1nn(C)c(C(O)C(C)(C)CCC#N)c1-c1c(F)cccc1F (stereo not drawn)",
    "Label Value": "yes (1)"
  }
]
